Measured target: Aminopeptidase N (Plasmodium falciparum (isolate 3D7)) (UniProt O96935)
Sequence (O96935 whole entry, looked up): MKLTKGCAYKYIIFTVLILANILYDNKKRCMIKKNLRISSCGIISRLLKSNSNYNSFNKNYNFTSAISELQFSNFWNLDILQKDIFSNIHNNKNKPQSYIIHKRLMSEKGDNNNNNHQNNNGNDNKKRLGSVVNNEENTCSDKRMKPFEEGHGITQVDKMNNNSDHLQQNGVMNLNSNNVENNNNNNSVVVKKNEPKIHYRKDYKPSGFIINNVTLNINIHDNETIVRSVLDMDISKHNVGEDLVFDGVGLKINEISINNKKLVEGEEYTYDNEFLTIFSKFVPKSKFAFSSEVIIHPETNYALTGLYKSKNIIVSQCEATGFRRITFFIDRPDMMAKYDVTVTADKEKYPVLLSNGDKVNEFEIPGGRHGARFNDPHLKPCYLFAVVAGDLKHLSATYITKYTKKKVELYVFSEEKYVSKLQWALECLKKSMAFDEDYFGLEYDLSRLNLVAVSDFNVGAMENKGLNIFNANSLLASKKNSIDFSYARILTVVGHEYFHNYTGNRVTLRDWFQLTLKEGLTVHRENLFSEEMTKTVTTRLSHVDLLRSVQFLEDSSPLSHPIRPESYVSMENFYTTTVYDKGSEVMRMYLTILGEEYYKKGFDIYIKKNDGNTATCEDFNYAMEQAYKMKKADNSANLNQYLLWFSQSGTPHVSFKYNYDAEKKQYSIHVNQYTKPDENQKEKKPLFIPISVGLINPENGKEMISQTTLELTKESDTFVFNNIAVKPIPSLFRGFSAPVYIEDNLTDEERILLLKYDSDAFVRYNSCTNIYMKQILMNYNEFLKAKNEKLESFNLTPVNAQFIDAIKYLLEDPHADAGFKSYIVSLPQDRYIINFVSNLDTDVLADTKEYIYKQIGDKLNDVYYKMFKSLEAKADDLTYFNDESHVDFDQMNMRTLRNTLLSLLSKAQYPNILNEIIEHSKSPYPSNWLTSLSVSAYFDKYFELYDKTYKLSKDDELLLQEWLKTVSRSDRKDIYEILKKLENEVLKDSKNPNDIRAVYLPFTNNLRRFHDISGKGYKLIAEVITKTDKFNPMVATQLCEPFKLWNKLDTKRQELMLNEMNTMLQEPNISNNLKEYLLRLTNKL
Protocol details: malaria alanyl aminopeptidase activity blockers – biochemical, fluorogenic H-Leu-NHMec substrate, 1536-well (AID 1445);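 further: plate controls were DMSO full reaction for no effect and no enzyme background for full effect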
Condition set: recombinant M1AAP, H-Leu-NHMec fluorogenic kinetic assay; at 30 µM, hits give high values unless noted
About 910 (0.41%) of roughly 220,000 compounds were called active. The list comes from a sample in which actives are over-represented; it also holds close analogues and randomly drawn compounds. Entries with a potency or affinity are not part of this list.
inhibition by entry:
Numbers only; they are read as %.

# count of solved cases: 5
Molecule: O=C(NC1CCN(C(=S)NCc2ccco2)CC1)c1ccc(F)cc1
Endpoint label: inhibition
Value measured: 14.1

Molecule: CCCS(=O)(=O)N1CCC(C(=O)c2cccc(C(F)(F)F)c2)CC1
Endpoint label: inhibition
Value measured: 23.4

Molecule: CS(=O)(=O)N1CCCC(C(=O)c2cccc(Cl)c2)C1 (configuration not stated)
Endpoint label: inhibition
Value measured: -1.4

Molecule: Cc1ccc(NC(=O)C2=C(O)c3sccc3N(C)S2(=O)=O)cc1
Endpoint label: inhibition
Value measured: 8.43

Molecule: CCS(=O)(=O)N1CCCC(C(=O)NCc2ccc3c(c2)OCO3)C1 (configuration not stated)
Endpoint label: inhibition
Value measured: 1.85

Moving on to the next molecule.
Challenge: Entry CC(=O)NS(=O)(=O)c1ccc(N=c2ssc3c2-c2cc(C)c(C)cc2NC3(C)C)cc1 has what inhibition?
Response given: 13.3
